assayed system: Calmodulin-1 (Homo sapiens)
measurement description: CALM1 binders on microarrays, EGTA buffer, profiling panel, biochemical, small-molecule microarray, Cy5-labelled CALM1 (AID 1111);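 further: labelled calmodulin applied in Tris saline Tween buffer holding calcium plus EGTA and DTT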
condition context: Cy5-CALM1 binding fluorescence, higher = more signal
property name: composite z-score

molecule	assayed system	result
C[C@H]1C2[C@H](Cc3ccccc3)NC(=O)[C@]23C(=O)N[C@@H](Cc2ccccc2)C(=O)N2CCC[C@H]2C(=O)NC/C=C/CC/C=C/C3[C@@H]2O[C@]12C (some centres undefined)	Calmodulin-1 (Homo sapiens)	-0.133
COCCOC(=O)N1C(=O)[C@@]2(c3cc(C#CCC(C(=O)OC)C(=O)OC)ccc31)[C@H](C(N)=O)[C@H]1C(=O)O[C@H](c3ccccc3)[C@H](c3ccccc3)N1[C@@H]2c1ccccc1OCCO	Calmodulin-1 (Homo sapiens)	1.44
COC(=O)[C@@]1(Cc2ccc(F)cc2)[C@H]2c3cc(C(=O)N4CCCC4)n(Cc4ccc(OC(F)(F)F)cc4)c3C[C@H]2CN1C(=O)c1ccccc1	Calmodulin-1 (Homo sapiens)	0.028
Cc1ccc(S[C@]2(C(=O)NCc3ccccc3)CC(=O)N(Cc3ccccc3C(F)(F)F)[C@@H]2c2ccc(CO)cc2I)cc1	Calmodulin-1 (Homo sapiens)	-0.348
COc1cc2c(cc1O)C(C)N(Cc1sc3ccccc3c1Cl)CC2 (centres undefined)	Calmodulin-1 (Homo sapiens)	1.23
C=C(COC)/C(=C/C[C@@H](OC(C)=O)c1cccc(OCCO)c1)c1cnc2ccccc2c1	Calmodulin-1 (Homo sapiens)	-0.534
O=C1NC(=O)C2C1C=CC(C(O)c1ccc(F)cc1)N2Nc1ccc(Cl)cc1Cl (centres undefined)	Calmodulin-1 (Homo sapiens)	0.805
COC(=O)Cn1c(C(=O)N(C)C)cc2c1C[C@H]1CN(C(=O)c3ccccc3)[C@@](Cc3ccccc3)(C(=O)OC)[C@@H]21	Calmodulin-1 (Homo sapiens)	0.371
CCCC1(C(=O)OC)C=C2C(=C(C(C)C)C(=O)C2C)CN1 (centres undefined)	Calmodulin-1 (Homo sapiens)	0.312
Cc1ccc(S[C@]2(C(=O)NC(C)C)CC(=O)N(Cc3ccccc3)[C@@H]2c2ccc(CO)cc2)cc1	Calmodulin-1 (Homo sapiens)	-0.0379
C=CCNC(=O)[C@H]1[C@@H]2C(=O)O[C@@H](c3ccccc3)[C@@H](c3ccccc3)N2[C@@H](c2ccc(O)cc2)[C@]12C(=O)N(C(=O)OCCOC)c1ccc(C#Cc3ccc(OC)cc3)cc12	Calmodulin-1 (Homo sapiens)	1.38
COc1cc(CO)cc(I)c1O[C@H]1C=C(C(=O)NCCO)C[C@@H](N(CCN2CCOCC2)C(=O)C2CCCO2)[C@@H]1O (some centres undefined)	Calmodulin-1 (Homo sapiens)	-0.292
C=CCC(OC(C)=O)[C@@H]1[C@@H](N(Cc2cccc3ccccc23)C(=O)c2ccc(C)cc2)c2cc(OCCCO)ccc2N1C(=O)Cc1ccc2ccccc2c1 (some centres undefined)	Calmodulin-1 (Homo sapiens)	1.1
CCOC(=O)C[C@H]1[C@H](OC(=O)c2cc3ccccc3oc2=O)[C@@H](NC(=O)c2ccc(-c3ccccc3)cc2)c2cc(OCCCO)ccc2N1C(=O)Cc1ccc(OC)cc1	Calmodulin-1 (Homo sapiens)	-0.0241

====

System: Lefty1
measurement description: Lefty1 binders on small-molecule microarrays, primary screen, biochemical, small-molecule microarray, 635/667 nm fluorescence (AID 1139)
condition context: small-molecule microarray binding, fluorescence 635/667; higher = more signal
Heads up, the class ranges for composite z-score are low class: < 0.3; middle class: ≥ 0.3 and < 0.9; high class: ≥ 0.9

molecule	assayed system	class name
COC(=O)C1(CC(C)C)C=C2C(=C(C)C(=O)C2C)CN1 (centres undefined)	Lefty1	low class
C=C(C(=O)CC[C@@H](OC(=O)c1ccccc1-c1ccccc1C(=O)O)c1ccc(CO)o1)C(C)C	Lefty1	high class
COC(=O)C(CC#Cc1ccc2c(c1)[C@]1(C(=O)N2)[C@H](C(N)=O)[C@H]2C(=O)O[C@H](c3ccccc3)[C@H](c3ccccc3)N2[C@@H]1c1ccccc1OCCO)C(=O)OC	Lefty1	middle class
CC(C)c1ccc(NN2C(C(O)C3=C[C@H]4C[C@@H](C3)C4(C)C)C=CC3C(=O)N(c4ccccc4)C(=O)C32)cc1 (some centres undefined)	Lefty1	middle class
CC(C)C[C@@H]1NC(=O)[C@@H]2C[C@H](C(=O)NCCCCCCNC(=O)CS)[C@H](c3ccc(O)cc3)N2C1=O	Lefty1	high class
CN(C)CCCCCCNC(=O)[C@@H]1C[C@@H]2C(=O)N[C@@H](CCCC[N+](C)(C)C)C(=O)N2[C@@H]1c1cccc(OCCO)c1	Lefty1	low class
C=C(C(=O)CC[C@H](OC(=O)c1ccccc1-c1ccccc1C(=O)O)c1ccc(OCCO)cc1)C(C)C	Lefty1	middle class
O=C1O[C@H](c2ccccc2)[C@H](c2ccccc2)N2[C@H]1[C@@H](C(=O)O)[C@]1(C(=O)Nc3ccccc31)[C@H]2c1ccc(OCCO)cc1	Lefty1	low class
COc1c(C)cc(-c2nc(-c3ccccc3)c3c(c2C)CO[Si]3(C(C)C)C(C)C)cc1C	Lefty1	middle class
COCCOC(=O)N1C(=O)[C@@]2(c3cc(C#CCC(C(=O)OC)C(=O)OC)ccc31)[C@H](C(N)=O)[C@H]1C(=O)O[C@H](c3ccccc3)[C@H](c3ccccc3)N1[C@@H]2c1ccccc1OCCO	Lefty1	high class
Cc1cccc([C@H]2C[C@H]3C(Br)=C[C@@]2(CO)C(=O)[C@]32CO2)c1	Lefty1	middle class
O=C1NC(=O)C2C1C=CC(C(O)c1ccc(F)cc1)N2Nc1ccc(Cl)cc1Cl (centres undefined)	Lefty1	low class
Cc1ccc(S(=O)(=O)N2[C@@H](c3ccccc3)C(C(=O)O)=CC[C@H]2c2ccc(F)cc2)cc1	Lefty1	high class
O=C(c1ccccc1)N1Cc2ccccc2C[C@@]2(N=C(c3ccc(OCCCO)cc3)O[C@H]2c2ccccc2)C1=O	Lefty1	high class
CO[C@H]1O[C@H](CO)[C@@H](OC(=O)Nc2cccc(F)c2)[C@H](OC(=O)Nc2ccc3c(c2)OCO3)[C@@H]1OC(=O)Nc1ccc2c(c1)OCO2	Lefty1	low class
CCOC(=O)C1=CCC(c2ccncc2)N(S(=O)(=O)c2ccc(C)cc2)C1 (centres undefined)	Lefty1	middle class
COCCOC(=O)N1C(=O)[C@@]2(c3cc(C#CCNC(N)=O)ccc31)[C@H](C(N)=O)[C@H]1C(=O)O[C@H](c3ccccc3)[C@H](c3ccccc3)N1[C@@H]2c1ccc(O)cc1	Lefty1	low class
COc1cc(Cc2cc3c(c(-c4ccccc4)n2)[Si](C(C)C)(C(C)C)OC3)cc(OC)c1OC	Lefty1	low class
CC(C)(C)OC(=O)CC[C@@]1(C(N)=O)N=C(c2ccc(OCCCO)cc2)O[C@@H]1c1ccccc1CN=[N+]=[N-]	Lefty1	low class
CCCCCN1CC=CC23O[C@@H]4/C=C\CCCOC(=O)C4[C@H]2C(=O)N(CCCCCO)[C@@H]3C1=O (some centres undefined)	Lefty1	low class
CC(C)c1ccc(NN2C(C(O)C3CCCCC3)C=CC3C(=O)N(c4ccccc4)C(=O)C32)cc1 (centres undefined)	Lefty1	high class
O=C1O[C@H](c2ccccc2)[C@H](c2ccccc2)N2[C@H]1[C@@H](C(=O)Nc1nc3ccccc3s1)[C@]1(C(=O)Nc3ccccc31)[C@H]2c1ccccc1OCCO	Lefty1	low class
COc1ccc(C#Cc2ccc3c(c2)[C@]2(C(=O)N3)[C@H](c3ccccc3OCCO)N3[C@H](c4ccccc4)[C@H](c4ccccc4)OC(=O)[C@H]3[C@@H]2C(=O)NC[C@H](O)c2ccccc2)cc1	Lefty1	high class
COCCOC(=O)N1C(=O)[C@@]2(c3cc(C#CC4(O)CCCCCC4)ccc31)[C@H](C(N)=O)[C@H]1C(=O)O[C@H](c3ccccc3)[C@H](c3ccccc3)N1[C@@H]2c1ccc(OCCO)cc1	Lefty1	middle class
COc1ccc([Si](C)(C)[C@H]2[C@H](CC(=O)N(CCO)Cc3ccccc3)O[C@@]3(C(=O)N(Cc4ccc(N5C(=O)c6cccc7cccc5c67)cc4)c4ccccc43)[C@@H]2C)cc1	Lefty1	high class
CN(C)CCCCNC(=O)[C@H]1C[C@H]2C(=O)N[C@@H](CCCCN(C)C)C(=O)N2[C@H]1c1ccc(O)cc1	Lefty1	middle class
C=CCNC(=O)[C@@H]1[C@H]2C(=O)O[C@H](c3ccccc3)[C@H](c3ccccc3)N2[C@H](c2ccc(OCCO)cc2)[C@@]12C(=O)Nc1ccc(C#CC3=CCCCC3)cc12	Lefty1	high class

====

measurement description: small-molecule microarray binders of probe aLefty2, primary screen, biochemical, biotinylated probe, 635/667 nm fluorescence (AID 1094);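 further: score merges spot fluorescence near 667 nm with spot signal-to-noise ratio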
condition context: higher = more signal
Reported composite z-score values for the following compounds.
property name: composite z-score

compound	property name	numeric result
CC(C)(C)OC(=O)CC[C@@]1(C(N)=O)N=C(c2ccc(OCCCO)cc2)O[C@@H]1c1ccccc1CN=[N+]=[N-]	composite z-score	0.669
COC(=O)C(CC#Cc1ccc2c(c1)[C@]1(C(=O)N2)[C@H](C(=O)N2CCCCCCC2)[C@H]2C(=O)O[C@H](c3ccccc3)[C@H](c3ccccc3)N2[C@@H]1c1ccc(OCCO)cc1)C(=O)OC	composite z-score	1.79
CCOC(=O)C1=CCC(c2cccn2C(=O)OC(C)(C)C)N(S(=O)(=O)c2ccc(C)cc2)C1 (centres undefined)	composite z-score	0.194
COc1ccc([Si](C)(C)[C@H]2[C@H](CC(=O)N(CCO)Cc3ccccc3)O[C@@]3(C(=O)N(c4ccccc4)c4ccccc43)[C@@H]2C)cc1	composite z-score	-0.11
COC(=O)[C@@]1(Cc2ccccc2)[C@H]2c3cc(C(=O)N(C)C)n(Cc4nc5ccccc5[nH]4)c3C[C@H]2CN1C(=O)c1ccccc1	composite z-score	0.718
[N-]=[N+]=Nc1ccccc1C[C@]1(C(N)=O)COC(c2ccc(OCCCO)cc2)=N1	composite z-score	0.538
O=C1N(Cc2ccccc2)c2ccccc2C[C@@]12N=C(c1ccc(OCCCO)cc1)O[C@H]2c1ccccc1	composite z-score	0.0686
O=C1O[C@H](c2ccccc2)[C@H](c2ccccc2)N2[C@H]1[C@@H](C(=O)N1CCCCCCC1)[C@]1(C(=O)Nc3ccc(C#CCCO)cc31)[C@H]2c1ccc(O)cc1	composite z-score	1.78
CO[C@H]1O[C@H](CO)[C@@H](OC(=O)Nc2cccc(F)c2)[C@H](OC(=O)Nc2ccc3c(c2)OCO3)[C@@H]1OC(=O)Nc1ccc2c(c1)OCO2	composite z-score	0.126
COc1cc2c(cc1OC)CN(C(=O)[C@@H]1[C@H]3C(=O)O[C@H](c4ccccc4)[C@H](c4ccccc4)N3[C@H](c3ccc(O)cc3)[C@@]13C(=O)Nc1ccc(C#CC4=CCCCC4)cc13)CC2	composite z-score	-0.0753
CCCCCCCCCCC(O)C1C=CC2C(=O)N(C)C(=O)C2N1Nc1ccccc1 (centres undefined)	composite z-score	-0.405
COC(=O)[C@@]1(Cc2ccc(F)cc2)[C@H]2c3cc(C(=O)N(C)C)n(Cc4ccsc4Br)c3C[C@H]2CN1C(=O)c1ccccc1	composite z-score	1.38
CCCCN1CC=CC23O[C@@H]4C=CCCOC(=O)C4[C@H]2C(=O)N(CCO)[C@@H]3C1=O (some centres undefined)	composite z-score	-0.182
CC[C@@H](O[Si](C#C[Si](C(C)C)(C(C)C)C(C)C)(C(C)C)C(C)C)c1cn([C@H](CO)Cc2ccccc2)nn1	composite z-score	-0.232
